The entries below come with measured RBD binding of 2nd Ab after 1st Ab (heat map) values attached.
- Target or test system: T1, SARS-CoV-2 receptor binding domain (RBD), wild type, His-tagged (SARS-CoV-2, UniProt P0DTC2 319-541)
- T1 construct: domain: RBD; also called His-tagged RBD; BEI NR52309
- Test name: BLI competition on His-tagged RBD, after 1st Ab 46
Reply with just the number.

| Binder | Observed value |
| --- | --- |
| mAb 324 (antibody, V domains shown, also called IgG 324; Antibody 324) VH: QVQLVQSGAEVKKPGASVKVSCKASGGTFNNYGISWVRQAPGQGLEWMGWMNPNSGNTGYAQKFQGRVTMTRDTSTSTVYMELSSLRSEDTAVYYCARVGDYGDYIVSPFDLWGRGTLVTVSS VL: DIQMTQSPSSLSASVGDRVTITCRASQSITTYLNWYQQKPGKAPKLLIYDASNLETGVPSRFSGSGSGTDFTLTISSLQPEDFATYYCQQSYSTPPTFGQGTKVEIKR | 1.2 |
| mAb 52 (antibody, V domains shown, also called IgG 52; Antibody 52) VH: QVQLVQSGAEVKKPGSSVKVSCKASGYTFTSYGISWVRQAPGQGLEWMGGIIPMFGTTNYAQKFQGRVTITADKSTSTAYMELSSLRSEDTAVYYCARDRGDTIDYWGQGTLVTVSS VL: DIQMTQSPSSLSASVGDRVTITCRASQGISNNLNWYQQKPGKAPKLLIYAASSLESGVPSRFSGSGSGTDFTLTISSLQPEDFATYYCQQGNGFPLTFGPGTKVDIKR | 0.5 |

// next entry
For record mAb 46 (antibody, V domains shown, also called IgG 46; Antibody 46) VH: EVQLLESGGGLVQPGRSLRLSCAASGFTFSSYAMSWVRQAPGKGLEWVSTIYSGGSTYYADSVKGRFTISRDNSKNTLYLQMNSLRAEDTAVYYCARGDSRDAFDIWGQGTMVTVSS VL: DIQMTQSPSSLSASVGDRVTITCRASQSISSWLAWYQQKPGKAPKLLIYDASNLETGVPSRFSGSGSGTDFTLTISSLQPEDFATYYCQQSYSTPFTFGPGTKVDIKR the listed RBD binding of 2nd Ab after 1st Ab (heat map) is 0.2
